reported property: melting point (°C)
Only the number, expressed in °C, is required.

compound: COc1ccc(B(O)O)cc1F
value units: °C
melting point: 238

compound: CCOC(=O)c1c(O)cc(C)nc1O [ethyl 2,4-dihydroxy-6-methylnicotinate]
value units: °C
melting point: 212

compound: COc1c(N2C[C@@H]3CCCN[C@@H]3C2)c(F)cc2c(=O)c(C(=O)O)cn(C3CC3)c12
value units: °C
melting point: 240

compound: C=CCCCCCCCCCC [Dodec-1-ene]
value units: °C
melting point: -35

compound: O=C(O)c1cc(=O)[nH]c(=O)[nH]1 [Orotic Acid]
value units: °C
melting point: 346

compound: Nc1ccn([C@@H]2O[C@H](CO)[C@@H](O)[C@@H]2O)c(=O)n1
value units: °C
melting point: 212

Inquiry: What melting point value was documented for this compound, Cc1cccc(C(=O)CC#N)c1 ?
Reply text: 73

Inquiry: What melting point value was documented for this compound, COC(=O)c1cccc(B(O)O)c1 ?
Reply text: 136

Inquiry: What melting point value was documented for this compound, C=CCCl [3-Chloroprop-1-ene] ?
Reply text: -134

Inquiry: What melting point value was documented for this compound, O=NN1CN2CN(C1)CN(N=O)C2 [3,7-Dinitroso-1,3,5,7-tetraazabicyclo[3.3.1]nonane] ?
Reply text: 207

Inquiry: What melting point value was documented for this compound, CC12CCC(=O)C=C1CCC1C2CCC2(C)C(O)CCC12 (stereo unspecified) ?
Reply text: 153

Inquiry: What melting point value was documented for this compound, O=[N+]([O-])c1ccc(Cl)c([N+](=O)[O-])c1 [1-chloro-2,4-dinitrobenzene] ?
Reply text: 53
